- Experimental details: yeast display, Sf9 membrane polyspecificity reagent, FACS + sequencing; frameworks hold sequencing errors
Experimental endpoint: polyreactivity (PSR sort gate)

For orientation, consider the following solved cases.
| Item sequence | polyreactivity (PSR sort gate) |
| --- | --- |
| QVQLVESGGGLVQAGGSLRLSCAASGFIFLRYGMGWYRPAPGKERELVASIDSTGGSTYADSVKGRFTISRDNAKNTVYLQMNSLKPEDTAVDYCAAAYYIVSERDYWGQGTQVTVSS | low polyreactivity |
| QVQLVESGGGLVQAGGSLRLSCAASGFTFKDYAMGWYRQAPGKERELVAANSRSGGSTYYADSVKGRFTNSRDSAKNTVYLQMNSLKPEDTAVYYCAAAYVRYRDPYGYWGQGTQVTVSS | high polyreactivity |
| QVQLVQSGGGLVQAGGSLRLSCAASGRIFRLSGMGWYRQAPGKERELVAAITRGASTYYADSVKGRFTISRDNAKNTVYLELNSLKPEDTAVYYCAAEGLITGGYWHLYYWGHGTQVTVSS | high polyreactivity |
| QVQLVESGGGLVQAGGSLSLSCAASGSILGYYAMGWYRQAPGKERELVAAISGRGGSTYYADSVKGRFTISRDNAKNPVYLQMNSLKPEDTAVYYCAKRSVWRGWGQGTQVTVSS | high polyreactivity |
| QVQLVESGGGLVQAGGSLRLSCAASGGIFLVYAMGWYRQAPGKERELVAAITPGGSTYYADSVKGRFTISRDNAKNTVYLQMNSLKPEDTAVYYCAKALYRREYSSGGYYRFDYWGQGTQVTVSS | high polyreactivity |

In: Can you share its polyreactivity (PSR sort gate)? I mean this sequence: KVQLVESGGGLVQAGGSLRLSCAASGSTFIGNAMGWYRQAPGKERELVAAISRTGGSTYADSVKGRFTISRDNAKNTVYLQMNSLKPEDTAVYYCNAVRWYYDYWGQGTQVTVSS
Out: high polyreactivity

In: Reported polyreactivity (PSR sort gate), sequence QVQLVESGGGLVQAGGSLRLSCAASGSIFDENAMGWYIQAPGKERELVAAITGSGVRTYYADSVKGRFTISRDNAKTTVYLQMNSLKPEDTAVYYCAAETLGVYDYESYTYYWGQRTQVTVSS : ____
Out: high polyreactivity

In: Fill blank: measured polyreactivity (PSR sort gate) of the sequence QVQLVESGGGLVQAGGSLRLSCAASGSIYHVYALGWYRQAPGKERELVATISSGGSTYYADSVKGRFTISRDNEKNTVYLQMNSLKPEDTAVYYCNADWFLYGGWYGYGYWGQGTQVTVSS is ____.
Out: low polyreactivity

In: Would you kindly share the measured polyreactivity (PSR sort gate) for QVQLVESGGGLVQAGGSLRLSCAASGSIFYNNAMGWYRQAPGKERELVATISDGGGSTYYADSVKGRFTISRDNAKNTVYLQMNSLKPEDTAVYYCAAPYYWGQGTQVTVSS ?
Out: low polyreactivity

In: Entry QVQLVESGGGLVQAGGSLRLSCAASGFTFPRYAMGWYRQAPGKERELVAAITTSVGNTYYADSVKGRFTISRDNAKNTVYLQMNSLKPEDTAVYYCSTIYDHFDYWGQGTQVTVSS : reported polyreactivity (PSR sort gate) = ?
Out: low polyreactivity

In: Param item = QVQLVESWGGLVQAGGSLRLSCAASGRIFGYYAMGWSRQAPGKERELVAVISSGGSTYADSVKGRFTISRDNAKNTVYLQMNSLKPEDTAFYYCAARNYWSSYRTYRSRYDYWGQGTQVTVSS ; retrieve measured polyreactivity (PSR sort gate).
Out: high polyreactivity

In: Item QVQLVESGGGLGQAGGRLRLSCAASGSIFRRNAMGWYRQAPGKERELVAGISGGGSTYYADSVKGRFTISRDNAKNTVYLQMYSLKPEDTAVYYCATDKHYRWAGFDYWGQGTQVTVSS has what recorded polyreactivity (PSR sort gate)?
Out: low polyreactivity

* * *

- Experimental details: yeast display, Sf9 membrane polyspecificity reagent, FACS + sequencing; frameworks hold sequencing errors
Experimental endpoint: polyreactivity (PSR sort gate)

| Item sequence | Measured value |
| --- | --- |
| QVQLVESGGGLVQAGGSLRLSCAASGSIYYNAMGWYRQAPGKERELVASISTGDSTDYADSVKGRFTISRDNAKNTFYLQMNSLKPEDTAVYYCAADTRLGYWDDYWGQGTQVTVSS | low polyreactivity |
| QFQLVESGGGLVQAGGSHRLSCAASGFIFYYYAMGSYRQAPGKERELVAVLTESGSSTYYADSVKGRFTFSRDNAKNTVYLQMNSLKPVDTAVYYCNADFWPYTGKYDYWGQGTQVTVSS | low polyreactivity |
| QVQRVESGGGLVQAGGSVRLSCPASGSIFWSYAMGWYRQAPGKERELVAVINWSGGSTYYADSVKGRFTISRDNAKNTVYLQMNSLNPEDTAVYYCNKDLGPTKRPFTFDYSGQGTQVTVSS | low polyreactivity |
| QVQLVESGGGLVQAGGSLRLSCAASGSTFYYNTMGWYRQAPGKDRELVAAITWTGGSTYYADSVKGRFTISRDNAKNTVYLQMNSLKPEDTAVYYCAAVNWRDEIYDYWGQGTQVTVSS | low polyreactivity |

* * *

- Experimental details: yeast display, Sf9 membrane polyspecificity reagent, FACS + sequencing; frameworks hold sequencing errors

| Item sequence | polyreactivity (PSR sort gate) |
| --- | --- |
| QVQLVESGGGLVQAGGSLRLSCAASGRTFDYYTMGWYRQAPGKERELVAAISWSGSTTYYADSVKGRFTISRDNAKNTVSLQMNSLKPEDTAVYYCAKSYRFPSVGPPGELDYWGQGTQVTVSS | high polyreactivity |
| QVQLVESGGGLVQAGGSLRLSCAASGRTFPVYAMGWYRQAPGKERELVASITGRGGSTYYADSVKGRFTISRDNAKNTVYLQMNSLKPEDTAVYYCARDWYKTYTGYYWGQGTQVTVSS | high polyreactivity |

* * *

- Experimental details: yeast display, Sf9 membrane polyspecificity reagent, FACS + sequencing; frameworks hold sequencing errors
Experimental endpoint: polyreactivity (PSR sort gate)

| Item sequence | polyreactivity (PSR sort gate) |
| --- | --- |
| QVQLVESGGGLVQAGGSLRLSCAASGFTFPSYAMGWYRQAPGKERELVAAISQRGGSTYYADSVKGRFTISRDNAKNTVYLQMNSLKPEDTAVYYCAALAPRTGRPTYGYWGQGTQVTVSS | low polyreactivity |
| QVQLVESGGGLVQAGGSLRLSCAASGYTFQYYAMGWYRQAPGKERELVAAISRGVGSTTYYADSVKGRFTISRDNAKNTVYLQMNSLKPEDTAVYYCNHDFLGDEYDYWGQGTQVTVSS | high polyreactivity |
| QVQLVESGGGLVQAGGSLRLSCAASGSIFEFNTMGWYRQAPGKERELVAAISSSGGRTYYADSVKGRFTISRDNAKNSVYLQMNSLKPEDTAVYYCNARRFVHNPDYDYWGQGTQVTVSS | high polyreactivity |
| QVQLVESGGGLVQAGGSLRLSCAASGSTFWPYTMGWYSQAPGKERELVAAISLSGGSTYYADSVKGRFTISRDIAKNTVYLQMNSLKPEDTAVYYCAAEGGYQNWHYLYDYWGQGTQVTVSS | low polyreactivity |
| QVQLVESGGGLVQAGGSLRLSCAASGLIFNRNDMGRYRQAPGKETELVAAISGDGGITYYADSVKGRFTISRDNAKNTVYLQMNSLKPEDTAVYYCNAGFTWGDWYDYWGQGTQVTVSS | low polyreactivity |
| QVQLVESGGGLVQAGGSLRISCAASGSTFLYNNMGWYRQAPGKERELVAAITWSGGNTYYADSVKGRFTISRDNAKNTVYLQMNSLKPEDTAVYYCNAVWYPPKRKCFDYWGQGTQVTVSS | low polyreactivity |

In: Field request: polyreactivity (PSR sort gate) | item: QVQLVESGGGLVQAGGSLRLSCAASGRIFDYYAMGWYRQAPGKERELVAAISLIGASTYYADSVKGRFTISRDNAKNSVYLQMNSLKQEDPAVDYCAAQYAFEVPGYYREDYYWGQGTQVTVSS
Out: low polyreactivity

In: Entry QVQHVESGGGLVQAGGSLRLSCAASGFTFYGNSMGWYRPAPGKERELVAGISWRGGSTYYADSVKGRFTISRDNAKNTVYLQMNSLKPEDTAVYYCAAYLWTNYYLWEYDYWGQGTQVTVSS has what polyreactivity (PSR sort gate)?
Out: high polyreactivity

In: Which measured polyreactivity (PSR sort gate) value corresponds to QVQLVESGGGLVQAGGSLRLSCAASGSIFDDYAMGWYRQAPGKEREFVADISYNGGTTYSADSVKGRFTISRDNAKNTVYLQMNSLKPEDTAVYYCAADRTNYTYYLPYDYWGPGTQVTVSS ?
Out: low polyreactivity

In: // polyreactivity (PSR sort gate) lookup, key: QVQLVESGGGLVQAGGRLRLSCAASGRTIVQNAMVWYRHDPGKERALVAAITSSGGRTYYADSVKGRFTISRDNAKNTVYLQMNSLKPEDTAVYYGAVTLRRGYDYWGQGTQVTVSS
Out: high polyreactivity

In: Give the measured polyreactivity (PSR sort gate) of QVQLVESGGGLVQAGGSLRLSCAASGRILYGYTMGWYRQAPGKEREFVATITRGGSTYYADSVKGRFTISRDNAKNTVYLQMNSLKPEDTAVYYCAAELSLATPTVPWYLYNYWGQGTQVTVSS .
Out: low polyreactivity

In: Fill in the blank: the reported polyreactivity (PSR sort gate) of QVQLVESGGGLVQAGGSLRLSCAASASIFYRNAMGWYRQAPGKERELVAGITTRGGSTYYADSVKGRFTISRDNAKNTVYLQMNSLNPEDTAVYYCNRRFPIYGSRFGYYYWGQGTQVTVSS is ____.
Out: high polyreactivity

In: State the recorded polyreactivity (PSR sort gate) for this entry: QVQLVESGGGLVQAGGSLRLSCDASGSTFVTYAMGWYRPAPGKERELVAAINTGGRTKYADSVKGRFTISRDNATNTVYLQMNSLKPEDTAVYYCAARLSTTGVAYGYWGQGTQVTVSS
Out: high polyreactivity

In: Report polyreactivity (PSR sort gate) for QVQLVESGGGLVQAGGSLRLSCAASGLTFSAYAMGWYRQAPGKERELVAAITTGGGRTYYADSVKGRFTISRDNAKNTVYLQMNSLKPEDTAVYYCNTLRAYWTYHFYGAVRDGYDYWGQGTKVTVSS please.
Out: low polyreactivity
